tested on: SARS-CoV-2; experiment: Antiviral activity against SARS-CoV-2 infected in African green monkey Vero E6 cells assessed as inhibition of viral infection; assay type: functional, organism-based; settings: Severe acute respiratory syndrome coronavirus 2, Vero C1008
quantity.measured: pIC50
Keep in mind that pIC50 stands for -log10 of concentration in molar terms.

CCN(CC)CCCC(C)Nc1ccnc2cc(Cl)ccc12 (stereo not drawn)	4.60
NC(=O)c1nc(F)cnc1O	2.86

Kindly consider the entry below.
In: Query: pIC50; subject: CCN(CCO)CCCC(C)Nc1ccnc2cc(Cl)ccc12 (stereo not drawn) [HYDROXYCHLOROQUINE]
Out: 4.43

----------
system: SARS-CoV-2; assay: Antiviral activity against SARS-CoV-2 infected in African green monkey Vero E6 cells; format: functional, organism-based; conditions: Severe acute respiratory syndrome coronavirus 2, Vero C1008
quantity.measured: EC50

In: Query: EC50; subject: `COc1cccc2[nH]c(C(=O)N[C@@H](CC(C)C)C(=O)N[C@@H](C[C@@H]3CCNC3=O)C(=O)CO)cc12`
Out: ≤ 230 nM
